System: MCF7S
Test: Concentration required for 50% reduction of cellular net growth of MCF-7 human breast cancer cells
Format: functional
metric-name: GI50

• COC(=O)/C=C\[C@H]1OCCC[C@@H]1O[Si](C)(C)C(C)(C)C = 32 µM

State the recorded GI50 for every item in the following list.
1. CC(C)(C)[Si](C)(C)O[C@H]1CCCO[C@@H]1CC=O
2. COC(=O)/C=C/C[C@H]1OCCC[C@@H]1O[Si](C)(C)C(C)(C)C
3. CC(C)(C)[Si](C)(C)O[C@H]1CCCO[C@@H]1CCO
4. CC(C)(C)[Si](C)(C)O[C@H]1CCCO[C@@H]1/C=C/CO
5. CC(C)(C)[Si](C)(C)OC/C=C/[C@H]1OCCC[C@@H]1O
6. CC(C)(C)[Si](C)(C)O[C@H]1CCCO[C@@H]1C/C=C/CO

Ans:
21 µM
18 µM
55 µM
61 µM
86 µM
25 µM

State the recorded GI50 for every item in the following list.
1. CC(C)(C)[Si](C)(C)O[C@H]1CCCO[C@@H]1/C=C\CO
2. COC(=O)/C=C/[C@H]1OCCC[C@@H]1O[Si](C)(C)C(C)(C)C

Ans:
6.4 µM
24 µM

* * *

Could you please report measured GI50 for the items listed next?
Tested on: HL-60
Assay: Concentration required for 50% reduction of cellular net growth of HL60 human leukemia cells
Type: functional
Answers are plain numbers, in µM.

* CC(C)(C)[Si](C)(C)O[C@H]1CCCO[C@@H]1/C=C/CO | 31
* COC(=O)/C=C/C[C@H]1OCCC[C@@H]1O[Si](C)(C)C(C)(C)C | 22
* CC(C)(C)[Si](C)(C)O[C@H]1CCCO[C@@H]1/C=C\CO | 26
* CC(C)(C)[Si](C)(C)O[C@H]1CCCO[C@@H]1CC=O | 40
* COC(=O)/C=C/[C@H]1OCCC[C@@H]1O[Si](C)(C)C(C)(C)C | 22

State the recorded GI50 for every item in the following list.
1. CC(C)(C)[Si](C)(C)O[C@H]1CCCO[C@@H]1C/C=C/CO
2. CC(C)(C)[Si](C)(C)O[C@H]1CCCO[C@@H]1CCO

Ans:
1. 27
2. 46
